Where do these numbers come from? They come from ChEMBL document CHEMBL4138123.

Field: GI50. Provide a value for each of the compounds that follow.
Tested on: BT-549
Test: Cytotoxicity against human BT549 cells assessed as growth inhibition after 48 hrs by sulforhodamine B assay
Assay type: functional
Settings: BT-549, 48 h
Numbers only, in nM.

Sample records with GI50:
# Smiles str, Measured parameter, Observed value
data = [
    ("COc1cc2c(cc1OC)C(=O)/C(=C/c1cc(-c3ccc4c(c3)OCO4)n[nH]1)C2", "GI50", 1620),
    ("COc1cc(-c2cc(/C=C/C(=O)c3ccc(N)cc3)[nH]n2)cc(OC)c1OC", "GI50", 1380),
    ("COc1ccc(-c2cc(/C=C/C(=O)c3ccc(N)cc3)[nH]n2)cc1", "GI50", 1740),
]

Provide only the value of recorded GI50 for COc1cc(C(=O)/C=C/c2cc(-c3ccc4c(c3)OCO4)n[nH]2)cc(OC)c1OC
2020

---

System: OVCAR-5
Assay: Cytotoxicity against human OVCAR5 cells assessed as growth inhibition after 48 hrs by sulforhodamine B assay
Format: functional
Conditions: OVCAR-5, 48 h
Measured parameter: GI50 (µM)
Give bare numbers, in µM.

# Smiles str, Unit label, GI50
rows = [
    ("COc1ccc(-c2cc(/C=C/C(=O)c3ccc(N)cc3)[nH]n2)cc1OC", "µM", 2.62),
    ("COc1cc2c(cc1OC)C(=O)/C(=C/c1cc(-c3ccc4c(c3)OCO4)n[nH]1)C2", "µM", 1.56),
    ("COc1ccc(-c2cc(/C=C/C(=O)c3ccc(N)cc3)[nH]n2)cc1", "µM", 2.06),
]

Fill: GI50 (OVCAR-5) for this compound COc1cc(-c2cc(/C=C/C(=O)c3ccc(N)cc3)[nH]n2)cc(OC)c1OC
1.78

---

Test system: OVCAR-8
Assay: Cytotoxicity against human OVCAR8 cells assessed as cell growth at 0.1 uM after 48 hrs by sulforhodamine B assay relative to control
Type: functional
Conditions: OVCAR-8, 48 h, read-out: Activity
Measured parameter: growth at 0.1 µM (%)
Give bare numbers, in %.

Kindly give each listed record's growth at 0.1 µM.
1. COc1ccc(-c2cc(/C=C/C(=O)c3ccc(N)cc3)[nH]n2)cc1OC
2. COc1cc(-c2cc(/C=C/C(=O)c3ccc(N)cc3)[nH]n2)cc(OC)c1OC
3. COc1cc2c(cc1OC)C(=O)/C(=C/c1cc(-c3ccc4c(c3)OCO4)n[nH]1)C2
4. COc1ccc(-c2cc(/C=C/C(=O)c3ccc(OC)c(OC)c3)[nH]n2)cc1
5. COc1ccc(-c2cc(/C=C/C(=O)c3ccc(N)cc3)[nH]n2)cc1

99
98
98
89
100

Provide measured growth at 0.1 µM value, entry: COc1ccc(C(=O)/C=C/c2cc(-c3cc(OC)c(OC)c(OC)c3)n[nH]2)cc1OC
92

---

Hi there, I'd appreciate the recorded growth at 1 µM for every entry that follows.
Tested on: MCF7
Test: Cytotoxicity against human MCF7 cells assessed as cell growth at 1 uM after 48 hrs by sulforhodamine B assay relative to control
Assay type: functional
Conditions: MCF7, 48 h, read-out: Activity
One number for each entry, in %.

See these solved cases before continuing.
# Smiles str, Study target, growth at 1 µM, %
measured = [
    ("COc1ccc(-c2cc(/C=C/C(=O)c3ccc(N)cc3)[nH]n2)cc1OC", "MCF7", 81),
    ("COc1cc(-c2cc(/C=C/C(=O)c3ccc4c(c3)OCO4)[nH]n2)cc(OC)c1OC", "MCF7", 65),
    ("COc1cc(C(=O)/C=C/c2cc(-c3cc(OC)c(OC)c(OC)c3)n[nH]2)cc(OC)c1OC", "MCF7", 40),
    ("COc1cc(-c2cc(/C=C/C(=O)c3ccc(Cl)c(Cl)c3)[nH]n2)cc(OC)c1OC", "MCF7", 62),
]

Now for the compound whose growth at 1 µM we want.
# assay system MCF7: give growth at 1 µM of COc1cc(-c2cc(/C=C/C(=O)c3ccc(F)c(F)c3)[nH]n2)cc(OC)c1OC
99

---

So I've got a bunch of compounds here, and I need their growth at 0.1 µM values.
System: NCI-H23
Assay: Cytotoxicity against human NCI-H23 cells assessed as cell growth at 0.1 uM after 48 hrs by sulforhodamine B assay relative to control
Format: functional
Settings: NCI-H23, 48 h, read-out: Activity
One number for each entry, in %.

Guide cases for growth at 0.1 µM, answers given:
# Smiles str, Study target, growth at 0.1 µM [%]
measured = [
    ("COc1ccc(-c2cc(/C=C/C(=O)c3ccc(N)cc3)[nH]n2)cc1", "NCI-H23", 94),
    ("COc1cc(-c2cc(/C=C/C(=O)c3ccc(Cl)c(Cl)c3)[nH]n2)cc(OC)c1OC", "NCI-H23", 92),
    ("COc1cc(-c2cc(/C=C/C(=O)c3ccc(N)cc3)[nH]n2)cc(OC)c1OC", "NCI-H23", 105),
]

Now for another entry.
Provide measured growth at 0.1 µM value, entry: COc1ccc(C(=O)/C=C/c2cc(-c3cc(OC)c(OC)c(OC)c3)n[nH]2)cc1
92

---

Test system: MDA-MB-231
Assay: Cytotoxicity against human MDA-MB-231 cells assessed as growth inhibition after 48 hrs by MTT assay
Format: functional, cell-based
Conditions: MDA-MB-231, 48 h
Please provide measured IC50 for the entries that follow.
Answers are plain numbers, in µM.

Take a look at these entries with their results.
# Smiles str, Study target, Measured parameter, Observed value
data = [
    ("O=C(/C=C/c1cc(-c2ccc3c(c2)OCO3)n[nH]1)c1ccc2c(c1)OCO2", "MDA-MB-231", "IC50", 3.3),
    ("O=C(/C=C/c1cc(-c2ccc3c(c2)OCO3)n[nH]1)c1ccc(Cl)c(Cl)c1", "MDA-MB-231", "IC50", 14.8),
    ("O=C(/C=C/c1cc(-c2ccc3c(c2)OCO3)n[nH]1)c1ccc(Cl)cc1", "MDA-MB-231", "IC50", 17.5),
    ("COc1ccc(C(=O)/C=C/c2cc(-c3ccc4c(c3)OCO4)n[nH]2)cc1OC", "MDA-MB-231", "IC50", 1.5),
    ("COc1ccc(C(=O)/C=C/c2cc(-c3ccc4c(c3)OCO4)n[nH]2)cc1", "MDA-MB-231", "IC50", 3.5),
    ("Nc1ccc(C(=O)/C=C/c2cc(-c3ccc4c(c3)OCO4)n[nH]2)cc1", "MDA-MB-231", "IC50", 5.1),
    ("CC(=O)/C=C/c1cc(-c2ccc3c(c2)OCO3)n[nH]1", "MDA-MB-231", "IC50", 20.2),
]

Identify the reported IC50 for the following entry. COc1ccc(-c2cc(/C=C/C(=O)c3cc(OC)c(OC)c(OC)c3)[nH]n2)cc1
2.4

---

Test system: OVCAR-5
Test: Cytotoxicity against human OVCAR5 cells assessed as growth inhibition after 48 hrs by sulforhodamine B assay
Type: functional
Conditions: OVCAR-5, 48 h
Please respond with reported log10 of LC50 for every item in the list.
Friendly reminder: values = log10 of LC50, unit µM.

A selection of reference data follows.
# Smiles str, log10 of LC50
data = [
    ("COc1cc(-c2cc(/C=C/C(=O)c3ccc(N)cc3)[nH]n2)cc(OC)c1OC", 0.90),
    ("COc1cc(C(=O)/C=C/c2cc(-c3ccc4c(c3)OCO4)n[nH]2)cc(OC)c1OC", 1.89),
    ("COc1ccc(C(=O)/C=C/c2cc(-c3cc(OC)c(OC)c(OC)c3)n[nH]2)cc1", 0.88),
    ("COc1ccc(-c2cc(/C=C/C(=O)c3ccc(OC)c(OC)c3)[nH]n2)cc1", 1.03),
]

Could you now consider this next compound?
Enter log10 of LC50 (test system OVCAR-5) for COc1cc(C(=O)/C=C/c2cc(-c3cc(OC)c(OC)c(OC)c3)n[nH]2)cc(OC)c1OC
0.77

---

Test system: CAKI-1
Test: Cytotoxicity against human Caki1 cells assessed as cell growth at 1 uM after 48 hrs by sulforhodamine B assay relative to control
Type: functional
Details: CAKI-1, 48 h, read-out: Activity
Measured parameter: growth at 1 µM (%)
One number for each entry, in %.

Worked set:
# Smiles str, Study target, Observed value
records = [
    ("COc1cc(-c2cc(/C=C/C(=O)c3ccc4c(c3)OCO4)[nH]n2)cc(OC)c1OC", "CAKI-1", 92),
    ("COc1cc(C(=O)/C=C/c2cc(-c3cc(OC)c(OC)c(OC)c3)n[nH]2)cc(OC)c1OC", "CAKI-1", 82),
    ("COc1ccc(-c2cc(/C=C/C(=O)c3ccc(N)cc3)[nH]n2)cc1", "CAKI-1", 56),
    ("COc1ccc(C(=O)/C=C/c2cc(-c3cc(OC)c(OC)c(OC)c3)n[nH]2)cc1", "CAKI-1", 89),
]

# next compound below
Tell me its growth at 1 µM given COc1ccc(C(=O)/C=C/c2cc(-c3ccc4c(c3)OCO4)n[nH]2)cc1OC as the entry.
89
